- System: Plasmodium berghei
- experiment description: Screen against P. berghei liver stage (PbLuc), transformed with Luciferase, at 10uM
- Type: functional, HepG2
- cond: tested at 10 uM
Out of some 69,000 compounds screened, about 8,600 (12%) showed an effect of 50% or more. The sample holds strong results, similar compounds and a random draw of the others, so the mix is not that of the screen.
metric name: INHIBITION (%)
Return type: number; implicit unit %.

Below, each entry is followed by its recorded INHIBITION result.
Query: Identify measured INHIBITION corresponding to CCN(C)c1ncnc2c1CCN(C(=O)c1ccoc1C)CC2
Response: -125

Query: Identify measured INHIBITION corresponding to COc1c(C(=O)NC(C)CC(=O)c2cccs2)c(C)nn1C (stereo not given)
Response: 36.7

Query: Identify measured INHIBITION corresponding to CN(C)C(=O)CO[C@H]1CN(Cc2ccc(F)cc2)[C@@H]2CCCO[C@H]12
Response: 25.1

Read the next record carefully.
Query: Identify measured INHIBITION corresponding to Cn1ncc2c(NCCOCc3ccccc3)nc(C3CCCC3)nc21
Response: 71.2

====

Listing of recorded INHIBITION by entry.
- System: Plasmodium berghei
- experiment description: Screen against P. berghei liver stage (PbLuc), transformed with Luciferase, at 10uM
- Type: functional, HepG2
- cond: tested at 10 uM
Hit rate of the full screen: of about 69,000 compounds, about 8,600 (12%) showed an effect of 50% or more. This is one part of a sample in which strong results are shown more often than they occur.
Return type: number; implicit unit %.

Query: Give the observed INHIBITION of CS(=O)(=O)Nc1ccc(CNC(=O)CN2CCc3ccccc32)cc1 for Plasmodium berghei.
Response: 16.6

Query: Give the observed INHIBITION of COc1cc(CNC(C)c2ccc(F)c(F)c2)cc2c1OCCO2 (configuration not stated) for Plasmodium berghei.
Response: 66.7

Query: Give the observed INHIBITION of COCCN(Cc1cnn(C)c1)C(=O)C1CCC(=O)N(C2CCCC2)C1 (configuration not stated) for Plasmodium berghei.
Response: 20.3

Query: Give the observed INHIBITION of O=S(=O)(CCO)CCc1ccccc1Cl for Plasmodium berghei.
Response: 25.2

Query: Give the observed INHIBITION of Nc1ncnc2nc(C3CCN(C(=O)Cc4ccc(F)cc4)C3)ccc12 (configuration not stated) for Plasmodium berghei.
Response: -19.9

Query: Give the observed INHIBITION of Cc1nnc(SCCCNc2cc(C3CC3)ncn2)s1 for Plasmodium berghei.
Response: 58.8

Query: Give the observed INHIBITION of Cc1cc(Cl)ccc1NCc1ccc(C(=O)N(C)C)[nH]1 for Plasmodium berghei.
Response: 3.03

Query: Give the observed INHIBITION of O=C(Cc1cccnc1)N1CCC2(CC1)CCN(C1CCOCC1)C2 for Plasmodium berghei.
Response: -3.19

====

Listing of recorded INHIBITION by entry.
- Tested on: Plasmodium berghei
- experiment description: Screen against P. berghei liver stage (PbLuc), transformed with Luciferase, at 10uM
- Assay type: functional, HepG2
- cond: tested at 10 uM
In all, about 69,000 compounds went through this assay and about 8,600 (12%) showed an effect of 50% or more. What follows is part of a selection rich in strong results, with near analogues and random picks from the rest.
Return type: number; implicit unit %.

Query: Identify measured INHIBITION corresponding to Cc1c(NC(C)C(C)C)cccc1C(=O)NCc1cnn(C)c1 (stereo not given)
Response: 29.3

====

- Test system: Plasmodium berghei
- experiment description: Screen against P. berghei liver stage (PbLuc), transformed with Luciferase, at 10uM
- Type: functional, HepG2
- cond: tested at 10 uM
Screen size: about 69,000 compounds; about 8,600 (12%) showed an effect of 50% or more. Shown is part of a subset that was picked to be rich in strong results.
metric name: INHIBITION (%)
Return type: number; implicit unit %.

Below, each entry is followed by its recorded INHIBITION result.
Query: Identify measured INHIBITION corresponding to Cc1cc(S(=O)(=O)NC(=O)CCc2cccnc2)c(C)s1
Response: 32

Query: Identify measured INHIBITION corresponding to CN1CCN(C(=O)CCc2ccccc2)Cc2cccnc21
Response: -54.5

Query: Identify measured INHIBITION corresponding to Cc1cc(C(=O)N2CCN(C)CC2)nn1CC(=O)NCc1ccccn1
Response: 1.95

Query: Identify measured INHIBITION corresponding to Cc1[nH]c2ccccc2c1-c1ccnc(N[C@@H](CO)C(C)C)n1
Response: 36.7

Query: Identify measured INHIBITION corresponding to CC(C)(C)c1cc(NC(=O)CN2CCC(N3CCNC3=O)CC2)on1
Response: 3.73

Read the next record carefully.
Query: Identify measured INHIBITION corresponding to Cc1cc(C)nc(N2CCC(C(=O)Nc3ccc(C(C)C)cc3)CC2)n1
Response: 20.2

====

Listing of recorded INHIBITION by entry.
- Tested on: Plasmodium berghei
- experiment description: Screen against P. berghei liver stage (PbLuc), transformed with Luciferase, at 10uM
- Assay type: functional, HepG2
- cond: tested at 10 uM
Out of some 69,000 compounds screened, about 8,600 (12%) showed an effect of 50% or more. The full list was thinned out, with strong results kept by preference.
Return type: number; implicit unit %.

Below, each entry is followed by its recorded INHIBITION result.
Query: Identify measured INHIBITION corresponding to Cc1cc(N(C)C)nc(C2(C)CCCN2C(=O)c2cnccn2)n1 (centres undefined)
Response: 16.5

Query: Identify measured INHIBITION corresponding to CS(=O)(=O)N1CCN(CC(=O)Nc2cccc(Cl)c2)CC1
Response: 6.83

Query: Identify measured INHIBITION corresponding to O=C1N(Cc2cccc(F)c2F)CCCC1(O)CNCc1ccccc1 (centres undefined)
Response: 40.4

Query: Identify measured INHIBITION corresponding to Cc1nn(C)c(N(C)C)c1CNCc1ccnc(N2CCCC2)c1
Response: -44.3

Query: Identify measured INHIBITION corresponding to O=C1CC(c2cccnc2)c2c(c(C(=O)O)cn2-c2ccccc2F)N1 (centres undefined)
Response: 19.4

Read the next record carefully.
Query: Identify measured INHIBITION corresponding to CCS(=O)(=O)Cc1csc(-c2ccc(S(C)(=O)=O)cc2)n1
Response: 3.4

====

Listing of recorded INHIBITION by entry.
- Tested on: Plasmodium berghei
- experiment description: Screen against P. berghei liver stage (PbLuc), transformed with Luciferase, at 10uM
- Format: functional, HepG2
- cond: tested at 10 uM
Screen size: about 69,000 compounds; about 8,600 (12%) showed an effect of 50% or more. Only a selection was taken, and strong results are over-represented in it overall.
Return type: number; implicit unit %.

Query: Identify measured INHIBITION corresponding to O=C(CCc1nc2ccccc2[nH]1)N1CCCC(n2cccn2)C1 (stereo unspecified)
Response: 40.75

Query: Identify measured INHIBITION corresponding to O=C(c1cc2c([nH]c1=O)CCC2)N1CCCCC1c1cccc(F)c1 (stereo unspecified)
Response: 54.7

Query: Identify measured INHIBITION corresponding to Cn1cnc2c1CCN(CCCS(=O)(=O)c1ccccc1)C2
Response: -1.14

Next:
Query: Identify measured INHIBITION corresponding to N#Cc1cccc(OCCN2CCn3c(nnc3C3CC3)C2)c1
Response: -1.14

Query: Identify measured INHIBITION corresponding to CCc1nnc2n1CCN(C(=O)c1ccc3cc[nH]c3c1)C2
Response: -7.53

====

- Test system: Plasmodium berghei
- experiment description: Screen against P. berghei liver stage (PbLuc), transformed with Luciferase, at 10uM
- Type: functional, HepG2
- cond: tested at 10 uM
About 8,600 (12%) of roughly 69,000 compounds showed an effect of 50% or more. Only a selection was taken, and strong results are over-represented in it overall.
metric name: INHIBITION (%)
Return type: number; implicit unit %.

Query: Identify measured INHIBITION corresponding to NS(=O)(=O)N1CCc2ccc(NC(=O)CCc3ccncc3)cc21
Response: 38.5

Next:
Query: Identify measured INHIBITION corresponding to Cn1cc(C(=O)N2CC[C@@H]3[C@@H]2CCN3c2ncc(F)cn2)cn1
Response: 2.4

Query: Identify measured INHIBITION corresponding to Cc1nc(C)c(C(=O)N2CCc3ccc(F)cc3C2C)o1 (centres undefined)
Response: -11.6

Query: Identify measured INHIBITION corresponding to CS(=O)(=O)N1CCc2c(cccc2NC(=O)CC(F)(F)F)C1
Response: 0.79

====

- Tested on: Plasmodium berghei
- experiment description: Screen against P. berghei liver stage (PbLuc), transformed with Luciferase, at 10uM
- Assay type: functional, HepG2
- cond: tested at 10 uM
Among all 69,000 compounds or so, about 8,600 (12%) showed an effect of 50% or more. The list comes from a sample in which strong results are over-represented; it also holds close analogues and randomly drawn compounds.
Listing of recorded INHIBITION by entry.
Return type: number; implicit unit %.

Below, each entry is followed by its recorded INHIBITION result.
Query: Identify measured INHIBITION corresponding to Cc1cc(-c2nnn(CCNS(C)(=O)=O)n2)ccc1F
Response: 31.8

Query: Identify measured INHIBITION corresponding to Cn1cc(CN2CCc3ccc(=O)n(Cc4ccncc4)c3CC2)cn1
Response: 20.6

Query: Identify measured INHIBITION corresponding to COc1cc(OC)c2nc(NCCN3CCNC3=O)cc(C)c2c1
Response: 7.92

Next:
Query: Identify measured INHIBITION corresponding to CC(C)Nc1ncccc1C(=O)NCc1ccnn1C
Response: 43
